Recorded VRE 700221 MIC values for a group of compounds are listed next.
Tested on: E. faecium - Van^r (VRE 700221)
RUN_DESCRIPTION: MIC, broth microdilution (NCCLS M7-A5)
Assay type: cell-based
TEST_SETTINGS: Table 4; averages of 2 experiments, * single experiment; both values given when differing >2 fold; in µg/mL

| SMILES_STRING | READOUT_KIND | EXPERIMENTAL_RESULT |
| --- | --- | --- |
| COC(=O)c1[nH]cc(-c2c[nH]c3ccc(Br)cc23)c1-c1c[nH]c2ccc(Br)cc12 | VRE 700221 MIC | 6 |
| COC(=O)c1[nH]c(C(=O)OC)c(-c2c[nH]c3cc(F)ccc23)c1-c1c[nH]c2ccccc12 | VRE 700221 MIC | >32* |
| O=C(O)c1[nH]c(C(=O)O)c(-c2c[nH]c3ccc(Cl)cc23)c1-c1c[nH]c2ccc(Cl)cc12 | VRE 700221 MIC | >16 |
| COC(=O)c1[nH]cc(-c2c[nH]c3cc(Cl)c(Cl)cc23)c1-c1c[nH]c2ncccc12 | VRE 700221 MIC | 6 |

[in] I would be grateful if you could share the reported VRE 700221 MIC for `COC(=O)c1[nH]cc(-c2c[nH]c3cc(Cl)c(F)cc23)c1-c1c[nH]c2ccc(F)cc12` .
[out] 8*

[in] Try this compound too: `O=C(O)c1[nH]cc(-c2c[nH]c3ccc(Cl)cc23)c1-c1c[nH]c2ccc(Cl)cc12`
[out] >32*
